Would you kindly list protein stability index for each of these variants?
B1: NET1 (parent)
chain: IKRTIRVLDVNNQSFREQEEPSNK

Variants of: B1
Experiment: protein stability index of a GFP-peptide fusion (GPS, HEK-293T) (PSI 1-6); higher = more stable;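 also: lentivirally expressed fusions sorted by FACS into six bins by GFP to DsRed ratio, PSI derived from sequencing read proportions per bin multiplied by bin number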
Settings: c terminus: a fixed tail appended
Lab note: write the figure by itself, no unit.

Input line: Return value of protein stability index for input "S14H" , no commentary.
Output line: 3.09

Input line: Return value of protein stability index for input "R16G" , no commentary.
Output line: 3.94

Input line: Return value of protein stability index for input "F15M" , no commentary.
Output line: 3.98

Input line: Return value of protein stability index for input "R3Q" , no commentary.
Output line: 4.44

Input line: Return value of protein stability index for input "V7F" , no commentary.
Output line: 3.35

Input line: Return value of protein stability index for input "N11D" , no commentary.
Output line: 4.47

Input line: Return value of protein stability index for input "S22W" , no commentary.
Output line: 1.92

Input line: Return value of protein stability index for input "V7E" , no commentary.
Output line: 3.74

Input line: Return value of protein stability index for input "K24I" , no commentary.
Output line: 3.29

Input line: Return value of protein stability index for input "E19N" , no commentary.
Output line: 2.89

Input line: Return value of protein stability index for input "Q13P" , no commentary.
Output line: 3.35

Input line: Return value of protein stability index for input "N23K" , no commentary.
Output line: 3.56

Input line: Return value of protein stability index for input "R3M" , no commentary.
Output line: 2.08

Input line: Return value of protein stability index for input "T4M" , no commentary.
Output line: 3.3

Input line: Return value of protein stability index for input "R3W" , no commentary.
Output line: 1.49

Input line: Return value of protein stability index for input "L8D" , no commentary.
Output line: 4.92

Input line: Return value of protein stability index for input "D9A" , no commentary.
Output line: 3.31

Input line: Return value of protein stability index for input "E17Q" , no commentary.
Output line: 3.14

Input line: Return value of protein stability index for input "E17T" , no commentary.
Output line: 3.03

Input line: Return value of protein stability index for input "Q13H" , no commentary.
Output line: 3.28

Input line: Return value of protein stability index for input "S22G" , no commentary.
Output line: 2.49

Input line: Return value of protein stability index for input "I5M" , no commentary.
Output line: 2.55

Input line: Return value of protein stability index for input "N11Q" , no commentary.
Output line: 4.34

Input line: Return value of protein stability index for input "V7W" , no commentary.
Output line: 2.41

Input line: Return value of protein stability index for input "F15A" , no commentary.
Output line: 4.27

Input line: Return value of protein stability index for input "P21A" , no commentary.
Output line: 3.29

Input line: Return value of protein stability index for input "V7N" , no commentary.
Output line: 4.5

Input line: Return value of protein stability index for input "D9T" , no commentary.
Output line: 2.9

Input line: Return value of protein stability index for input "I5T" , no commentary.
Output line: 5.1

Input line: Return value of protein stability index for input "E20F" , no commentary.
Output line: 2.97

Input line: Return value of protein stability index for input "E19A" , no commentary.
Output line: 2.57

Input line: Return value of protein stability index for input "E17R" , no commentary.
Output line: 3.42

Input line: Return value of protein stability index for input "K2T" , no commentary.
Output line: 4.8

Input line: Return value of protein stability index for input "E20A" , no commentary.
Output line: 3.69

Input line: Return value of protein stability index for input "T4Y" , no commentary.
Output line: 3.09

Input line: Return value of protein stability index for input "P21N" , no commentary.
Output line: 3.92

Input line: Return value of protein stability index for input "Q13W" , no commentary.
Output line: 2.51

Input line: Return value of protein stability index for input "N23V" , no commentary.
Output line: 4.04

Input line: Return value of protein stability index for input "P21T" , no commentary.
Output line: 3.57

Input line: Return value of protein stability index for input "I1D" , no commentary.
Output line: 4.58

Input line: Return value of protein stability index for input "S14C" , no commentary.
Output line: 3.27

Input line: Return value of protein stability index for input "E20C" , no commentary.
Output line: 3.27

Input line: Return value of protein stability index for input "I1K" , no commentary.
Output line: 4.14

Input line: Return value of protein stability index for input "I1C" , no commentary.
Output line: 4.76

Input line: Return value of protein stability index for input "S22I" , no commentary.
Output line: 3.28

Input line: Return value of protein stability index for input "V10E" , no commentary.
Output line: 4.79

Input line: Return value of protein stability index for input "D9R" , no commentary.
Output line: 3.54

Input line: Return value of protein stability index for input "N11R" , no commentary.
Output line: 4.41

Input line: Return value of protein stability index for input "R16L" , no commentary.
Output line: 3.35

Input line: Return value of protein stability index for input "N12P" , no commentary.
Output line: 3.41

Input line: Return value of protein stability index for input "S22H" , no commentary.
Output line: 3.83

Input line: Return value of protein stability index for input "D9M" , no commentary.
Output line: 1.91

Input line: Return value of protein stability index for input "D9K" , no commentary.
Output line: 4.44

Input line: Return value of protein stability index for input "N23M" , no commentary.
Output line: 3.41

Input line: Return value of protein stability index for input "K2R" , no commentary.
Output line: 2.93

Input line: Return value of protein stability index for input "I1G" , no commentary.
Output line: 3.67

Input line: Return value of protein stability index for input "E17G" , no commentary.
Output line: 3.29

Input line: Return value of protein stability index for input "K2F" , no commentary.
Output line: 3.04

Input line: Return value of protein stability index for input "Q13D" , no commentary.
Output line: 3.56

Input line: Return value of protein stability index for input "I5F" , no commentary.
Output line: 3.39

Input line: Return value of protein stability index for input "Q18T" , no commentary.
Output line: 3.37

Input line: Return value of protein stability index for input "I1V" , no commentary.
Output line: 3.54

Input line: Return value of protein stability index for input "E20W" , no commentary.
Output line: 2.31

Input line: Return value of protein stability index for input "E20L" , no commentary.
Output line: 3.16

Input line: Return value of protein stability index for input "V10Q" , no commentary.
Output line: 4.03

Input line: Return value of protein stability index for input "R16V" , no commentary.
Output line: 3.96

Input line: Return value of protein stability index for input "Q13C" , no commentary.
Output line: 3.01

Input line: Return value of protein stability index for input "D9Q" , no commentary.
Output line: 3.26

Input line: Return value of protein stability index for input "Q13N" , no commentary.
Output line: 3.69

Input line: Return value of protein stability index for input "R3P" , no commentary.
Output line: 4.57

Input line: Return value of protein stability index for input "Q18M" , no commentary.
Output line: 3.07

Input line: Return value of protein stability index for input "L8F" , no commentary.
Output line: 3.83

Input line: Return value of protein stability index for input "L8E" , no commentary.
Output line: 5.07

Input line: Return value of protein stability index for input "D9E" , no commentary.
Output line: 3.91

Input line: Return value of protein stability index for input "D9W" , no commentary.
Output line: 2.89

Input line: Return value of protein stability index for input "S22V" , no commentary.
Output line: 3.23

Input line: Return value of protein stability index for input "S22A" , no commentary.
Output line: 3.04

Input line: Return value of protein stability index for input "R3I" , no commentary.
Output line: 1.37

Input line: Return value of protein stability index for input "V7S" , no commentary.
Output line: 4.28

Input line: Return value of protein stability index for input "R16T" , no commentary.
Output line: 3.85

Input line: Return value of protein stability index for input "F15Q" , no commentary.
Output line: 4.29

Input line: Return value of protein stability index for input "K24W" , no commentary.
Output line: 2.61

Input line: Return value of protein stability index for input "K2C" , no commentary.
Output line: 4.05

Input line: Return value of protein stability index for input "L8C" , no commentary.
Output line: 4.93

Input line: Return value of protein stability index for input "N12Y" , no commentary.
Output line: 3.21

Input line: Return value of protein stability index for input "N23A" , no commentary.
Output line: 2.99

Input line: Return value of protein stability index for input "F15I" , no commentary.
Output line: 3.96

Input line: Return value of protein stability index for input "V10G" , no commentary.
Output line: 4.22

Input line: Return value of protein stability index for input "S14D" , no commentary.
Output line: 3.68

Input line: Return value of protein stability index for input "I1W" , no commentary.
Output line: 3.45

Input line: Return value of protein stability index for input "S14M" , no commentary.
Output line: 3.21
